- Tested on: T-47D breast
- protocol-details: NCI tumour cell line growth inhibition, 48 h
reported-metric: TGI (µM)

> print(dat)
                                   compound  target.of.assay  unit.string  relation.operator  observed.result
1  COc1ccc2nc(NC(=O)CSc3nnc4n3S(=O)(=O)c3ccccc3N4c3ccccc3)sc2c1     T-47D breast           µM                  >              100
2  CC1(C(=O)O)CCC2(C)CCC3(C)C(=CC(=O)C4C5(C)CCC(O)C(C)(C)C5CCC43C)C2C1 (stereo not drawn)     T-47D breast           µM                  =             99.1
3  COc1ccc(CN2C(=O)/C(=C\c3cc(OC)c(OC)c(OC)c3)c3ccccc32)cc1     T-47D breast           µM                  =             7.31
